biological target: T1, human PD-L1 on cells (PHA-activated human T cells); PD-L1-transfected CHO-S cells; A375 melanoma cells; … (human, UniProt Q9NZQ7 19-290); test: flow cytometry on PHA-activated human T cells, biotin-labeled anti-human IgG Fcγ and streptavidin-PE, MFI
T1 construct: whole, on cells; also called PD-L1 expressing T cells; PD-L1 expressing CHO-S cells
T1 sequence (Q9NZQ7 19-290): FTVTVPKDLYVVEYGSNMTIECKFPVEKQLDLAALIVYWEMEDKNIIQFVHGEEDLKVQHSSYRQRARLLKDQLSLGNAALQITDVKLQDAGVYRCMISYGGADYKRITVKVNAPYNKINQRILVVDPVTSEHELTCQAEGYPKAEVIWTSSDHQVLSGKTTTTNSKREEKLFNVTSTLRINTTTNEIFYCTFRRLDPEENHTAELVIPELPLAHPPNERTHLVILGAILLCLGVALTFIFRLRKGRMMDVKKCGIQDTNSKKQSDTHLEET
Readout Name: EC50 (read off the curve)

PL3#7-43 mtIgG1 (antibody, V domains shown, Antibody was biotinylated (NHS-PEG4-biotin, sites not specified) for the Octet assay of Table 11., N297A mutant human IgG1; also called PL3#7-43 parental mtIgG1) VH: QVQLVQSGAEVKKPGSSVKVSCKASGGTFSSYPISWVRQAPGQGLEWMGRIIPILGIANYAQKFQGRVTITADKSTSTAYMELSSLRSEDTAVYYCARSRPGYAFGAFDIWGQGTLVTVSS VL: QSVVTQPPPVSGAPGQRVTISCTGSSSNVGAGYDVHWYQQLPGTAPKLLIYGNSNRSSGVPDRFSGSKSGTSASLAITGLQAEDEADYYCQTYDSSGSARVVFGGGTKLTVLG	~8 ng/mL
PL3#7-54 mtIgG1 (antibody, V domains shown, Antibody was biotinylated (NHS-PEG4-biotin, sites not specified) for the Octet assay of Table 11., N297A mutant human IgG1) VH: QVQLVQSGAEVKKPGSSVKVSCKASGGTFSSYPISWVRQAPGQGLEWMGRIIPILGIADYAQKFQGRVTITADKSTSTAYMELSSLRSEDTAVYYCARSRPGYAFGAFDIWGQGTLVTVSS VL: QSVVTQPPPVSGAPGQRVTISCTGSSSNIGQGYDVHWYQQLPGTAPKLLIYANSNRPSGVPDRFSGSKSGTSASLAITGLQAEDEADYYCQTYDSSLSARVVFGGGTKLTVLG	~4 ng/mL
anti-PD-L1 ref-2 (IgG2) (antibody, V domains shown) VH: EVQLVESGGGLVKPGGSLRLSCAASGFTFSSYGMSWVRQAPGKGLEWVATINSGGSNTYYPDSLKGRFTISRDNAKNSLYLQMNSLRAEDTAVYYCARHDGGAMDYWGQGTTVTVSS VL: DIQMTQSPSSLSASVGDRVTITCRASESIYSYLAWYQQKPGKAPKLLVYNTKTLPEGVPSRFSGSGSGTDFTLTISSLQPEDFATYYCQHHYGTPPWTFGQGTRLEIK	~4 ng/mL
PL2#3 mtIgG1 (N297A) (antibody, V domains shown, N297A mutant of human IgG1 Fc backbone) VH: EVQLVQSGGGLVKPGGSLRLSCAASGFTFSSYTMNWVRQAPGKGLEWVSSISSGSDYLYYADSVKGRFTISRDNAKNSLYLQMNSLRAEDTAVYYCARNELRWYPQAGAFDRWGQGTMVTVSS VL: QSVVTQPPSMSAAPGQRVTISCSGSSSYIESSYVGWYQQLPGTAPRLLIYDDDMRPSGIPDRFSGSKSGTSATLAITGLQTGDEADYYCEIWRSGLGGVFGGGTKLTVLS	~3 ng/mL
